Entry source: PubChem BioAssay AID2071

Measured inhibition of individual entries
Test: NALP1 inflammasome inhibitors in reconstituted yeast, colorimetric, S. cerevisiae, triplicate retest (AID 2071)
Settings: S. cerevisiae NALP1/ASC/caspase-1 growth, X-gal OD620, 72 h; triplicate retest; at 20 µM; stronger effect = higher value
Screen size: about 280,000 compounds; about 1,700 (0.61%) were called active. The full list was thinned out, with actives kept by preference.

# molecule, inhibition / %
records = [
    ("Cc1cccc(C)c1NC(=O)C(Cl)C(=O)c1ccccc1 (stereo not given)", 80.1),
    ("CC1(C)CCSC(/C=C/c2ccccc2)=N1", 102),
    ("CCC(=O)c1ccc(OCC(O)CN2CCN(c3cccc(C(F)(F)F)c3)CC2)cc1 (stereo not given)", 65.2),
    ("CCN1/C(=C/c2ccc3ccc(C)cc3[n+]2CC)Sc2ccccc21", 107),
    ("COc1ccc(C(CCNCc2ccccc2F)c2ccc(F)cc2)cc1 (stereo not given)", 74.4),
    ("Cc1cccc2sc(N(CCCN(C)C)C(=O)CCS(=O)(=O)c3ccccc3)nc12", 99.3),
    ("Oc1c(Cl)cc(Cl)c(Cl)c1Cc1c(O)c(Cl)cc(Cl)c1Cl", 100),
    ("COc1cc(N2C(=O)CSC2=S)cc(OC)c1OC", 57.6),
    ("O=C1C=CC(=O)N1c1ccc(N2CCCCC2)cc1", 114),
    ("COc1ccc(NC(=S)SC)cc1OC", 94.6),
]

###

Assay: NALP1 inflammasome inhibitors in reconstituted yeast, colorimetric, S. cerevisiae, triplicate retest (AID 2071)
Conditions: S. cerevisiae NALP1/ASC/caspase-1 growth, X-gal OD620, 72 h; at 10 µM unless noted
About 1,700 (0.61%) of roughly 280,000 compounds were called active. Cut-off read from the data, not from the text of the source: active = inhibition mostly above about 24% (no sharp cut-off); inactive = mostly below about 32%. Only a selection was taken, and actives are over-represented in it overall.
Classes used: True for active, False for inactive

# compound, classification
rows = [
    ("O=C(N/N=C/c1ccccc1O)C1CCCC1", "False"),
    ("CCOc1ccc(-n2c(SCC(N)=O)nnc2-c2ccco2)cc1", "False"),
    ("O=S1(=O)CCOC[C@H](CC2CCCCC2)N1Cc1ccc(F)cc1", "False"),
    ("O=Cc1c(Nc2ccccc2Cl)nc2ccccn2c1=O", "False"),
    ("COCC(=O)Nc1ccc(Br)cc1", "False"),
    ("Cc1occc1C(=O)N/N=C/c1ccc(-c2cccc([N+](=O)[O-])c2)o1", "False"),
    ("COc1ccc(C(=O)C2CCCN(C(=O)c3cc(C)on3)C2)cc1F (stereo not drawn)", "False"),
    ("COc1ccc(S(=O)(=O)Nc2ccc3c(c2)OCO3)cc1Cl", "True"),
    ("O=C(CNC(=O)c1ccc(F)cc1)c1ccccc1", "False"),
    ("COc1ccc(S(=O)(=O)Nc2ccc(S(=O)(=O)N3CCCCC3)cc2)cc1OC", "False"),
    ("CN1CCN(NC(=O)Nc2ccc(Br)cc2)CC1", "False"),
    ("CC1Cc2cc(/C(O)=C3\\C(=O)C(=O)N(Cc4cccnc4)C3c3ccccc3F)ccc2O1 (stereo not drawn)", "False"),
    ("C/C(=N\\NC(=O)c1cc(-c2ccc(O)cc2)nc2ccccc12)c1cccnc1", "False"),
    ("CCOCCCNC(=O)C(NC(=O)Cc1c[nH]c2ccccc12)c1ccc(OC)cc1 (stereo not drawn)", "False"),
    ("Fc1ccccc1N=C1Nc2cccc3cccc1c23", "False"),
    ("COc1ccc(C(C[N+](=O)[O-])n2nc(C)cc2C)cc1 (stereo not drawn)", "True"),
    ("COc1cccc(CNC(=O)CCCC(=O)Nc2cccc([N+](=O)[O-])c2)c1", "False"),
    ("COc1ccc(OCc2cn3c(C)cc(C)nc3n2)cc1", "False"),
    ("COc1ccc(O)c(/C=N/N=C/c2cccc([N+](=O)[O-])c2)c1", "False"),
    ("COc1ccccc1CCNC(=O)C1CCN(C(=O)/C=C/c2ccccc2)CC1", "False"),
    ("O=C(CSCC(=O)Nc1cccc([N+](=O)[O-])c1)Nc1ccccc1", "False"),
    ("CN(CCO)c1ccc(/C=N/Nc2nncc3ccccc23)cc1", "False"),
    ("CCOCCCNC(=O)C(NC(=O)c1ccccc1O)c1ccccc1 (stereo not drawn)", "False"),
]

###

Experiment: NALP1 inflammasome inhibitors in reconstituted yeast, colorimetric, S. cerevisiae, triplicate retest (AID 2071)
Conditions: S. cerevisiae NALP1/ASC/caspase-1 growth, X-gal OD620, 72 h; at 10 µM unless noted
Hit rate of the full screen: of about 280,000 compounds, about 1,700 (0.61%) were called active. Rule as the data show it: active = inhibition mostly above about 24% (no sharp cut-off); inactive = mostly below about 32%. Only a selection was taken, and actives are over-represented in it overall.
Classes used: true = active, false = inactive

# compound, classification
data = [
    ("Cc1ccccc1C(=O)Nc1ccc(N2CCCCCC2)cc1", "false"),
    ("CCC(=C/c1sc2ccc3ccccc3c2[n+]1C)/C=C1\\Sc2ccc3ccccc3c2N1C", "true"),
    ("O=C(Nc1cccc([N+](=O)[O-])c1)N1CCc2ccccc2C1", "false"),
    ("O=C(Nc1cccc(Cl)c1Cl)c1ccccc1NC(=O)C1CC=CCC1C(=O)O (stereo not drawn)", "false"),
    ("COc1ccc2oc(=O)c(C(=O)N3CCN(c4ccccc4F)CC3)cc2c1", "false"),
    ("Cn1c(SCC(=O)c2ccc(F)cc2)nnc1-c1ccccn1", "false"),
    ("CCC(CC)c1nnc(NC(=O)C2CCN(C(=O)c3ccco3)CC2)s1", "false"),
    ("CN(Cc1cnccn1)C(=O)c1cc(COc2cccc(C(F)(F)F)c2)on1", "false"),
    ("O=[N+]([O-])c1ccc(NC(=S)N2CCN(c3ccccn3)CC2)cc1", "false"),
    ("COc1ccc(C(=O)C2CCCN(C(=O)c3ccc(OC)o3)C2)c(C)c1 (stereo not drawn)", "false"),
    ("Cc1ccccc1Nc1nc(-c2cccnc2)cs1", "false"),
    ("CNC(=O)/C(C#N)=C/c1c(F)cccc1Cl", "true"),
    ("Cn1c(SCC(=O)C(C)(C)C)nnc1-c1ccccn1", "true"),
    ("O=C(NCc1cccs1)C1CCN(S(=O)(=O)c2ccc(Cl)cc2)CC1", "true"),
    ("OCCn1c(-c2ccccc2)csc1=Nc1ccccc1", "true"),
    ("CCOC(=O)C1(Cc2ccccc2C)CCCN(C(=O)CN2C(=O)CSC2=O)C1 (stereo not drawn)", "false"),
    ("Cc1ccc(C)c(N2CCN(C(=O)CCCCCn3c(=S)[nH]c4ccc(N5CCOCC5)cc4c3=O)CC2)c1", "false"),
    ("O=C(C(NS(=O)(=O)c1cccc2nsnc12)c1ccccc1)N1CCN(c2ccccc2)CC1 (stereo not drawn)", "true"),
    ("N#C/C(=C\\c1ccccc1C(F)(F)F)C(=O)Nc1ccccc1F", "false"),
    ("O=C(C(NS(=O)(=O)c1cccc2nsnc12)c1ccccc1)N1CCN(c2ccccn2)CC1 (stereo not drawn)", "false"),
    ("COc1ccc(C(=O)NCC(=O)N/N=C/c2cccnc2)cc1", "false"),
    ("O=C(N/N=C\\C1CC=CCC1)c1ccc(Br)o1 (stereo not drawn)", "false"),
    ("O=C(c1cccc2ccccc12)N1CCN(c2ccccc2F)CC1", "true"),
]

###

Assay: NALP1 inflammasome inhibitors in reconstituted yeast, colorimetric, S. cerevisiae, triplicate retest (AID 2071)
Conditions: S. cerevisiae NALP1/ASC/caspase-1 growth, X-gal OD620, 72 h; at 10 µM unless noted
About 1,700 (0.61%) of roughly 280,000 compounds were called active. No stated cut-off is given here; in the data, active means inhibition mostly above about 24% (no sharp cut-off); inactive means mostly below about 32%. The sample holds actives, similar compounds and a random draw of the others, so the mix is not that of the screen.
Classes used: t for active, f for inactive

# compound, classification
records = [
    ("Cc1ccc(S(=O)(=O)n2cnc3ccccc32)c(C)c1", "t"),
    ("OCCNc1nc(Nc2ccc(Cl)c(Cl)c2)nc2ccccc12", "t"),
    ("Cn1c(SCC(=O)Nc2ccc(Br)cc2F)nnc1-c1ccco1", "t"),
    ("Cc1ccc(S(=O)(=O)N2CCN=C2SCc2c(F)cccc2Cl)cc1", "f"),
    ("Cc1cccc(NC(=O)C2CCN(C(=O)NC3CCCCC3)CC2)c1", "f"),
    ("Nc1nc(Nc2ccccc2)nc(NCCO)c1[N+](=O)[O-]", "f"),
    ("Cc1ccc(C)c(S(=O)(=O)n2cnc3ccccc32)c1", "f"),
    ("COc1ccc(S(=O)(=O)n2cnc3ccccc32)c(C)c1", "f"),
    ("Cc1ccc(OCc2cc(C(=O)N(C)CCn3ccnc3C)no2)cc1C", "f"),
    ("Cn1c(SCC(=O)c2cccs2)nnc1-c1ccco1", "f"),
    ("CCCN1CCn2c3c(c4cc(Br)ccc42)CCCC31 (configuration not stated)", "f"),
    ("Nc1ccccc1SCc1cc([N+](=O)[O-])cc2c1OCOC2", "t"),
    ("Cc1nonc1NC(=O)c1oc2ccccc2c1C", "f"),
    ("CC(=O)c1ccc(NC(=O)c2cc(-c3cccs3)on2)cc1", "f"),
    ("COc1ccccc1NC(=O)C1CCN(C(=O)c2ccc(C(C)(C)C)cc2)CC1", "f"),
    ("Cc1nc(-c2ccccc2)sc1C(=O)/C=C/N(C)C", "t"),
    ("Cc1ccccc1NC(=O)C1CCN(C(=O)NC2CCCCC2)CC1", "t"),
    ("COc1ccc(N2C(=O)C3CCCN3C2c2cccc(OC)c2)cc1 (configuration not stated)", "f"),
    ("CCCOC1CCCN(C(=O)c2cc(COc3cncc(Cl)c3)on2)C1 (configuration not stated)", "f"),
    ("CCOc1ccccc1-c1cc(C(=O)N2CCOCC2)c2ccccc2n1", "f"),
    ("CC(=O)N1CCN(CC(C)(C)NS(=O)(=O)c2ccc(C)cc2)CC1", "f"),
    ("O=C(Nc1cccc2c1CCCC2)C1CCN(C(=O)NC2CCCCC2)CC1", "f"),
]
